These entries and their values trace back to patent US7446195B2.

# CDK-2 (Homo sapiens): IC50 values follow

Here is how some molecules turned out for IC50.
• COc1ccc(NC(=O)c2ccc(C(=O)Nc3ccc(-c4ncn(C)n4)cc3)s2)c(C)c1 [Compound 179] = ≥ 40 µM
• CN(C(=O)c1ccc(C(=O)Nc2ccc(-n3cncn3)cc2)s1)C1CCCCC1 [Compound 39] = ≤ 1 µM
• COc1ccc(C(=O)Nc2ccc(C(=O)N3CCC(Oc4cnccn4)CC3)o2)cc1 [Compound 182] = ≥ 40 µM

q: Find IC50 (CDK-2 (Homo sapiens)) for the entry CN1CCC(NC(=O)c2ccc(C(=O)Nc3ccc(-n4cncn4)cc3)s2)CC1 [Compound 141]
a: ≥ 40 µM

q: What IC50 appears in the records for this molecule with CDK-2 (Homo sapiens)? CN(C(=O)c1ccc(C(=O)Nc2ccc(-n3cncn3)cc2)s1)c1ccccc1 [Compound 96]
a: ≥ 40 µM

q: Reported IC50 for CDK-2 (Homo sapiens), given O=C(Nc1ccc(-n2cncn2)c(F)c1)c1ccc(C(=O)Nc2ccccc2COc2ccccc2)s1 [Compound 204] ?
a: ≥ 40 µM

q: Quick check: IC50 on CDK-2 (Homo sapiens), item COc1ccc(NC(=O)c2ccc(C(=O)Nc3ccc(-n4cncn4)cc3)s2)cc1Cl [Compound 61] ?
a: 1 to 40 µM

q: CDK-2 (Homo sapiens) / IC50 / O=C(Nc1ccc(-n2cncn2)cc1)c1ccc(C(=O)NC2Cc3ccccc3C2)s1 [Compound 114] : value?
a: ≥ 40 µM

q: Request: IC50, test system CDK-2 (Homo sapiens), entry COc1ccc(C(=O)Nc2ccc(C(=O)Nc3ccc(-n4cncn4)cc3)s2)c(C)c1 [Compound 2]
a: ≤ 1 µM

q: So what IC50 did COc1ccc(C(=O)Nc2ccc(C(=O)N3CCC(Oc4cnccn4)CC3)o2)c(C)c1 [Compound 192] get with CDK-2 (Homo sapiens)?
a: ≥ 40 µM

q: Query the reported IC50 for CDK-2 (Homo sapiens); item: O=C(NCc1ccncc1)c1ccc(C(=O)Nc2ccc(-n3cncn3)cc2)s1 [Compound 98]
a: ≥ 40 µM

q: Request - read-out IC50 | tested on CDK-2 (Homo sapiens) | molecule O=C(Nc1ccc(-n2cncn2)cc1)c1ccc(C(=O)NC2CCNCC2)s1 [Compound 139]
a: ≥ 40 µM

###

# CDK-2 (Homo sapiens, UniProt P24941): IC50 values follow

# example entries with known answers
* CN(C(=O)c1ccc(C(=O)Nc2ccc(-n3cncn3)c(F)c2)o1)C1CCCCC1 [Compound 213] | ≥ 40 µM
* Cn1nc(-c2ccccc2)cc1NC(=O)c1ccc(C(=O)Nc2ccc(-n3cncn3)cc2)s1 [Compound 66] | 1 to 40 µM
* O=C(Nc1ccc(-n2cncn2)c(F)c1)c1ccc(C(=O)N[C@H]2CC[C@H](O)CC2)o1 [Compound 49] | 1 to 40 µM
* O=C(NC[C@@H]1CCCO1)c1ccc(C(=O)Nc2ccc(-n3cncn3)cc2)s1 [Compound 94] | ≥ 40 µM

q: What value of IC50 on CDK-2 (Homo sapiens, UniProt P24941) does O=C(Nc1ccc(-n2cncn2)cc1)c1ccc(C(=O)N2CCCC(c3ccccc3)C2)s1 (centres unmarked) [Compound 116] have?
a: ≥ 40 µM

###

Target: UniProt P24941
pIC50: −log10 of the molar value.
The following molecules are shown together with reported pIC50 values.

Some solved cases for reference:
• O=C(Nc1ccc(-n2cncn2)cc1)c1ccc(C(=O)N2CCN(C3CCCC3)CC2)s1 = ≤ 4.40
• O=C(Nc1ccc(-n2cncn2)c(F)c1)c1ccc(C(=O)Nc2ccccc2OCc2ccncc2)s1 = ≤ 4.40

Now examine the next entry.
q: I am curious: what pIC50 value has been reported for "O=C(Nc1ccc(-n2cncn2)cc1)c1ccc(C(=O)Nc2nc3ccccc3s2)s1" ?
a: 4.40 to 6.00

###

# IC50 measurements, system: CDK-2 (Homo sapiens)

Example molecules with recorded IC50:
* CN(C)CCCNC(=O)c1ccc(C(=O)Nc2ccc(-n3cncn3)cc2)s1 [Compound 140] | ≥ 40 µM
* COc1ccc(N(C)C(=O)c2ccc(C(=O)Nc3ccc(-n4cncn4)cc3)s2)cc1 [Compound 68] | 1 to 40 µM
* O=C(Nc1ccc(-n2cncn2)cc1)c1ccc(C(=O)N2CCOCC2)s1 [Compound 85] | ≥ 40 µM
* O=C(Nc1ccc(-n2cncn2)cc1)c1ccc(C(=O)N[C@@H]2CCc3ccccc32)s1 [Compound 113] | ≥ 40 µM
* CNCc1ccc(NC(=O)c2ccc(C(=O)Nc3ccc(-n4cncn4)c(F)c3)s2)c(C)c1 [Compound 70] | 1 to 40 µM

q: Would you mind telling me what IC50 value was observed for O=C(Nc1ccc(-n2cncn2)c(F)c1)c1ccc(C(=O)N2CCOCC2)o1 [Compound 211] ?
a: ≥ 40 µM

q: Looking for the measured IC50 of O=C(Nc1ccc(-n2cncn2)cc1)c1ccc(C(=O)NC2CCCCC2)s1 [Compound 91] , can you help?
a: ≥ 40 µM

###

For reference, IC50 measured on CDK-2 (Homo sapiens):

q: Enter reported IC50 observed with CDK-2 (Homo sapiens) for "COc1ccc(NC(=O)c2ccc(C(=O)Nc3ccc(-n4cncn4)cc3)s2)cc1OC"
a: ≥ 40 µM

q: What measured IC50 is associated with "O=C(Nc1ccc(C(=O)Nc2ccc(-n3cncn3)cc2)o1)c1ccncc1" on CDK-2 (Homo sapiens)?
a: ≥ 40 µM

q: Notebook: pull reported IC50 for CDK-2 (Homo sapiens), entry "Cc1cccc(NC(=O)c2ccc(C(=O)Nc3ccc(-n4cncn4)cc3)s2)n1"
a: ≥ 40 µM

q: Value wanted: IC50 (CDK-2 (Homo sapiens)) of entry "COC(=O)c1cc(OC)ccc1NC(=O)c1ccc(C(=O)Nc2ccc(-n3cncn3)cc2)s1"
a: 1 to 40 µM

q: Requested read-out IC50, target or system CDK-2 (Homo sapiens), entry "COc1ccc(NC(=O)c2ccc(C(=O)Nc3ccc(C(N)=O)cc3)s2)c(C)c1"
a: ≥ 40 µM

q: Please tell me: IC50 of "O=C(Nc1ccc(-n2cncn2)cc1)c1ccc(C(=O)Nc2cc(-c3ccco3)n[nH]2)s1" , system CDK-2 (Homo sapiens)?
a: ≥ 40 µM

q: Reported IC50 for CDK-2 (Homo sapiens), given "Cc1cnc(NC(=O)c2ccc(C(=O)Nc3ccc(-n4cncn4)cc3)s2)s1" ?
a: ≥ 40 µM

q: GET /values?readout=IC50&system=CDK-2 (Homo sapiens)&item= "O=C(Nc1ccc(-n2cncn2)c(F)c1)c1ccc(C(=O)Nc2ccccc2C(F)(F)F)s1"
a: 1 to 40 µM

q: # query: IC50 | item "O=C(NC[C@H]1CCCO1)c1ccc(C(=O)Nc2ccc(-n3cncn3)cc2)s1" | system: CDK-2 (Homo sapiens)
a: ≥ 40 µM

q: Form field - read-out: IC50; system: CDK-2 (Homo sapiens); submitted item: "O=C(Nc1ccc(-n2cncn2)cc1)c1ccc(C(=O)Nc2ccc3c(c2)OCO3)s1"
a: ≥ 40 µM

###

Values of pIC50 reported for CDK-2 (Homo sapiens, UniProt P24941) appear below.
pIC50: −log10 of the molar value.

Solved entries:
* O=C(NCc1nc2ccccc2[nH]1)c1ccc(C(=O)Nc2ccc(-n3cncn3)cc2)s1 | ≤ 4.40
* Cc1cc(CNC(=O)c2ccc(C(=O)Nc3ccc(-n4cncn4)cc3)s2)no1 | ≤ 4.40
* COc1ccc(NC(=O)c2ccc(C(=O)Nc3ccc4ncccc4c3)s2)c(C)c1 | ≤ 4.40
* O=C(Nc1ccc(C(=O)Nc2ccc(-n3cncn3)cc2)s1)c1ccccc1 | ≥ 6.00

q: Return pIC50 measured with CDK-2 (Homo sapiens, UniProt P24941) given this compound: "Cc1ccccc1NC(=O)c1ccc(C(=O)Nc2ccc(-n3cncn3)cc2)o1"
a: ≥ 6.00

###

Biological target: CDK-2 (Homo sapiens, UniProt P24941)
Assay: CDK-2 inhibition (Table 1; fluorescence polarization displacement assay)
Type: binding
Details: inhibitory effectiveness toward CDK-2
pIC50: −log10 of the molar value.
Recorded pIC50 by entry

Sample records with pIC50:
• Cc1cc(CN(C)C)ccc1NC(=O)c1ccc(C(=O)Nc2ccc(-n3cncn3)cc2)s1 = 4.40 to 6.00
• Cc1cc(CN2CCOCC2)ccc1NC(=O)c1ccc(C(=O)Nc2ccc(-n3cncn3)cc2)s1 = ≥ 6.00

Now for the compound whose pIC50 we want.
q: Return reported pIC50; argument: "CN(C)C(=O)c1ccc(C(=O)Nc2ccc(-n3cncn3)c(F)c2)o1"
a: ≤ 4.40

###

Biological target: UniProt P24941
metric: IC50

• COc1ccc(NC(=O)c2ccc(C(=O)Nc3ccc(-n4cccn4)cc3)s2)c(C)c1 = ≥ 40 µM
• O=C(NCc1ccc2c(c1)CCO2)c1ccc(C(=O)Nc2ccc(-n3cncn3)cc2)s1 = ≥ 40 µM
• COc1ccc(C(=O)Nc2ccc(C(=O)N3CCC(c4ccncc4)C3)o2)c(C)c1 (stereo not drawn) = ≥ 40 µM
• O=C(Nc1ccc(-n2cncn2)c(F)c1)c1ccc(C(=O)NC2CCCCC2)o1 = ≤ 1 µM
• O=C(NC[C@H](O)c1ccccc1)c1ccc(C(=O)Nc2ccc(-n3cncn3)cc2)s1 = ≥ 40 µM

q: What does the record list as IC50 for "Cn1c(NC(=O)c2ccc(C(=O)Nc3ccc(-n4cncn4)cc3)s2)nc2ccccc21" ?
a: ≥ 40 µM

q: Name the reported IC50 value associated with the molecule "CC(C)[C@@H](CO)NC(=O)c1ccc(C(=O)Nc2ccc(-n3cncn3)cc2)s1"
a: ≥ 40 µM

q: Given the entry "O=C(Nc1ccc(-n2cncn2)c(F)c1)c1ccc(C(=O)Nc2ccccc2Cl)s1" , report its measured IC50.
a: ≤ 1 µM

q: Could you share which IC50 value was measured for "COc1ccc(NC(=O)c2ccc(C(=O)Nc3ccc(F)cc3-n3cncn3)s2)c(C)c1" ?
a: 1 to 40 µM
